test: chemical genetic growth profiling, strain panel (AID 1159580);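 also: tested at 20 µM; growth read once vehicle control cultures reached saturation at 30 °C; 1 = growth at the plate median or of vehicle wells; lower values mean less growth of the strain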; conditions: S. cerevisiae deletion strains, growth OD, locus YMR219W, strain ESC1, stronger effect = lower value
The whole screen tested about 5,500 compounds, of which about 2,000 (36%) were called active. Another 18% or so got no clear call; they are omitted. This is one part of the list.
TEST_READOUT: normalized growth
Answer as a number with no unit attached.

# compound Cn1c(CSCC(=O)Nc2ccccc2)n[nH]c1=S ; its normalized growth = 0.993

Sure, the documented normalized growth for Cc1cc(=O)n2[nH]cc(C#N)c2n1 is 0.994

compound O=C(CSCc1c(F)cccc1Cl)Nc1ccc(F)c(Cl)c1 , normalized growth observed: 0.891

// normalized growth value for NC(=S)COc1ccccc1Cl : 0.982

Record Cc1cc(OCOc2ccc(Cl)c(C)c2)ccc1Cl , field normalized growth: 0.991

Query COc1ccc(C(=O)CN2CCN(c3cc(C)nc4ccccc34)CC2)cc1 yields normalized growth of 0.997

Record summary for O=C(CSCc1c(F)cccc1Cl)NC1Cc2ccccc2C1 : reported normalized growth = 0.97

Recorded result, COC(=O)C1Cc2c([nH]c3ccccc23)C2(CCN(C)CC2)N1 (configuration not stated) , normalized growth: 0.995

---

test: chemical genetic growth profiling, strain panel (AID 1159580); conditions: S. cerevisiae deletion strains, growth OD, locus YOR070C, strain gyp1, stronger effect = lower value
About 2,000 (36%) of roughly 5,500 compounds were called active. Not shown: some 18% with an inconclusive outcome. The list shows a part of the results.
TEST_READOUT: normalized growth
When you answer, write just the number.

Recorded normalized growth, per entry:
NC(Cc1c[nH]c2ccccc12)C(=O)O (centres undefined) = 1.02
CC(=O)NC(C(=O)O)C(C)(C)SN=O (centres undefined) = 0.979
COc1ccc2c(c1)c(CC(=O)O)c(C)n2C(=O)c1ccc(Cl)cc1 = 0.977

// next entry
Form: compound = CCCCCCCCCCCCCCC(C(=O)O)C(O)(CC(=O)OC)C(=O)O (centres undefined) ; normalized growth = 0.985

---

assay: chemical genetic growth profiling, strain panel (AID 1159580); settings: S. cerevisiae deletion strains, growth OD, locus YLR258W, strain gsy2, stronger effect = lower value
About 2,000 (36%) of roughly 5,500 compounds were called active. Another 18% or so got no clear call; they are omitted. This is one part of the list.
TEST_READOUT: normalized growth
Give a plain numeric answer without units written out.

# normalized growth of CC1(C)CC[C@@]2(C(=O)O)C(C1)C1=CCC3[C@@]4(C)CC[C@H](O)C(C)(C)C4CC[C@@]3(C)[C@]1(C)C[C@@H]2O (stereo partly specified) = 1.01

Quick note, normalized growth for CC1(C)CCC2(C(=O)O)CCC3(C)C(=CCC4C5(C)CCC(O)C(C)(C)C5C(O)CC43C)C2C1 (stereo unspecified) landed at 1.02

Record Cc1cc(C(C)(C)C)c(O)c(C(C)(C)C)c1 . Reported normalized growth: 0.997

Sure, the documented normalized growth for CC(CC(=O)C1OC1(C)C)C1C(=O)CC2(C)C3=CCC4C(C)(C)C(OC5OCC(O)C(O)C5O)CCC45CC35C(O)CC12C (stereo unspecified) is 1.01

Consider C/C=C(/C)C(=O)O[C@@H]1[C@H](OC(C)=O)[C@@]2(CO)C(CC1(C)C)C1=CCC3[C@@]4(C)CC[C@H](O[C@@H]5O[C@H](C(=O)O)[C@@H](O[C@@H]6O[C@H](CO)[C@@H](O)[C@H](O)[C@H]6O)[C@H](O)[C@H]5O[C@@H]5O[C@H](CO)[C@@H](O)[C@H](O)[C@H]5O)[C@](C)(CO)C4CC[C@@]3(C)[C@]1(C)C[C@H]2O (stereo partly specified) . Its measured normalized growth is 0.981

Lab note: measured normalized growth of C#C[C@]1(O)CCC2C3CCC4=C(CCC(=O)C4)C3CC[C@@]21C (stereo partly specified) was 0.973

---

assay: chemical genetic growth profiling, strain panel (AID 1159580); conditions: S. cerevisiae deletion strains, growth OD, locus YER002W, strain NOP16, stronger effect = lower value
Out of some 5,500 compounds screened, about 2,000 (36%) were called active. Roughly 18% stayed inconclusive and do not appear here. The list shows a part of the results.
# normalized growth annotations
// no unit, no text: just the number

Nc1ncnc2c1ncn2C1CCCC1 = 1.01
COc1ccc2c(c1)c(CC(=O)O)c(C)n2C(=O)c1ccc(Cl)cc1 = 1.02
NC(=O)c1cc[n+](CC2=C(C(=O)O)N3C(=O)[C@@H](NC(=O)[C@@H](c4ccccc4)S(=O)(=O)[O-])[C@H]3SC2)cc1 = 0.995
N=C(N)c1ccc(OCCCCCOc2ccc(C(=N)N)cc2)cc1 (tested in a mixture with another compound) = 0.95

Continue with the compound presented below.
Input CC(=O)OCC(=O)[C@@]1(O)CC[C@H]2[C@@H]3CCC4=CC(=O)CC[C@]4(C)[C@H]3C(=O)C[C@@]21C . Output normalized growth: 0.991

---

assay: chemical genetic growth profiling, strain panel (AID 1159580);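 also: tested at 20 µM; growth read once vehicle control cultures reached saturation at 30 °C; 1 = growth at the plate median or of vehicle wells; lower values mean less growth of the strain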; conditions: S. cerevisiae deletion strains, growth OD, locus YNL271C, strain bni1, stronger effect = lower value
Among all 5,500 compounds or so, about 2,000 (36%) were called active. Roughly 18% stayed inconclusive and do not appear here. This is one part of the list.
Below, each of the compounds is paired with its reported normalized growth value.
Form rule: numeric answer, no unit written next to it.

Here's what some known entries look like.
CC(C)=CCCC1(C)C=Cc2c(O)c3c(c(CC=C(C)C)c2O1)OC12C(=CCCC1C(C)(C)O[C@@]2(C/C=C(\C)C(=O)O)C(=O)O)C3=O (stereo partly specified) = 0.947
Nc1ccc(S(=O)(=O)Nc2cnc3ccccc3n2)cc1 = 0.985

Let us move to another entry and its normalized growth.
Lab note: CC(C)=CCCC1(C)C=Cc2c(O)c3c(c(CC=C(C)C)c2O1)OC12C(=CC4CC1C(C)(C)OC2(C/C=C(/C)C(=O)O)C4=O)C3=O (stereo unspecified) gave normalized growth of 0.981

---

experiment: chemical genetic growth profiling, strain panel (AID 1159580);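 also: tested at 20 µM; growth read once vehicle control cultures reached saturation at 30 °C; 1 = growth at the plate median or of vehicle wells; lower values mean less growth of the strain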; conditions: S. cerevisiae deletion strains, growth OD, locus YOR270C, strain vph1, stronger effect = lower value
The campaign covered roughly 5,500 compounds. About 2,000 (36%) were called active. About 18% were inconclusive and are not listed. Some of the results follow.
TEST_READOUT: normalized growth
Lab note: jot the number down without any unit.

Illustrative cases are given below, each with its answer.
CC(C)(Oc1ccc(CCNC(=O)c2ccc(Cl)cc2)cc1)C(=O)O = 1.03
COc1c(-c2coc3cc4c(cc3c2=O)CC(OC(C)=O)C(C)(C)O4)ccc2c1C=CC(C)(C)O2 (configuration not stated) = 1.03
NNC(=O)c1ccncc1 = 1
C[C@@H]1CC[C@]2(C(=O)O)CC[C@]3(C)C(=CCC4[C@@]5(C)CC[C@H](O)C(C)(C)C5CC[C@]43C)C2[C@H]1C (some centres not stated) = 1
CNCc1ccccc1 = 1.08
CC1(C)CC[C@]2(C)CC[C@]3(C)C(=CCC4[C@@]5(C)CC[C@H](O)C(C)(C)C5CC[C@]43C)C2C1 (some centres not stated) = 1.05
C[C@H]1[C@H](C)CC[C@]2(CO)CC[C@]3(C)C(=CCC4[C@@]5(C)CC[C@H](O)C(C)(C)C5CC[C@]43C)[C@H]12 (some centres not stated) = 0.984
Cc1ccc(-c2cc(C(F)(F)F)nn2-c2ccc(S(N)(=O)=O)cc2)cc1 = 1.07
Cc1cc(O)cc(=O)o1 = 1.02
CC1(C)CCC2(C(=O)O)CCC3(C)C(=CCC4C5(C)CCC(O)C(C)(C)C5C(O)CC43C)C2C1 (configuration not stated) = 0.911

# normalized growth of CC1(C)CC[C@@]2(C(=O)O)C(C1)C1=CCC3[C@@]4(C)CC[C@H](O)C(C)(C)C4CC[C@@]3(C)[C@]1(C)C[C@@H]2O (some centres not stated) = 1.11

The recorded normalized growth for entry COC(=O)C[C@H]1C(C)(C)C(=O)[C@@H]2CC3C4=CC(=O)O[C@@H](c5ccoc5)[C@]4(C)CCC3[C@@]1(C)C2=O (some centres not stated) equals 0.925

---

test: chemical genetic growth profiling, strain panel (AID 1159580);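 also: tested at 20 µM; growth read once vehicle control cultures reached saturation at 30 °C; 1 = growth at the plate median or of vehicle wells; lower values mean less growth of the strain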; details: S. cerevisiae deletion strains, growth OD, locus YGL227W, strain vid30, stronger effect = lower value
Screen size: about 5,500 compounds; about 2,000 (36%) were called active. Not shown: some 18% with an inconclusive outcome. Some of the results follow.
Entries and their normalized growth values follow.
No unit in the answer, only the number.

Examples with answers:
Nc1c2c(nc3ccccc13)CCCC2 = 0.993
Cc1cc(O)cc(C)c1Cl = 0.949
COc1cccc2c1C(=O)c1c(O)c3c(c(O)c1C2=O)C[C@@](O)(C(C)=O)C[C@@H]3O[C@H]1C[C@H](N)[C@H](O)[C@H](C)O1 = 0.941
Nc1c2c(nc3ccccc13)CCCC2O (centres undefined) = 0.995
CC(=O)NC(C(=O)O)C(C)(C)SN=O (centres undefined) = 0.992

Form: compound = COc1cc(C(=O)O[C@H]2CC[C@@]3(C)[C@@H]4CC[C@H]5[C@]6(O)C[C@H](O)[C@@]7(O)[C@@H](CN8C[C@@H](C)CC[C@H]8[C@@]7(C)O)[C@]6(O)C[C@@]53O[C@]24O)cc(OC)c1OC ; normalized growth = 1.01

Please fill in: normalized growth reported for C#C[C@]1(O)CCC2C3CCC4=CC(=O)CC[C@@H]4C3CC[C@@]21C (some centres undefined) = 0.984
